Each entry below lists one item and its recorded % AUC to SO35-hIgG1 value.
Target: T1, human PVRIG-mFc protein (Acro, PVG-H5253) (human, UniProt Q6DKI7 41-171, limits assumed)
T1 construct: extracellular domain; Bought protein; also called PVRIG-ECD-mFc; not shown: mouse Fc tag of the bought protein
T1 sequence (looked up): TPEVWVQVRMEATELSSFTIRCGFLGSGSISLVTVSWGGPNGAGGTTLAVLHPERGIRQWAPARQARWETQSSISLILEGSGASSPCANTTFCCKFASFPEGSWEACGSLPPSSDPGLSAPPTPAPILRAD
Assay: FACS blocking of PVRIG-mFc binding to CHO-K1-CD112 cells; competitor CD112
endpoint-label: % AUC to SO35-hIgG1 (%)

- binder: "PVRIG-A50 (Fc fusion, Alpaca VHH expressed as VHH-hinge-CH2-CH3 of human IgG1 (heavy-chain antibody); also called PVRIG-50; not shown: human IgG1 hinge-CH2-CH3 (Fc)) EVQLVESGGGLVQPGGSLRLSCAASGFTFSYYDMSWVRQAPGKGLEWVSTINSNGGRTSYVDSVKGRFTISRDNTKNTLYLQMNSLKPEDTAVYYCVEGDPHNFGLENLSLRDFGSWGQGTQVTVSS"
  recorded-number: 72.1
- binder: "PVRIG-A105-H3 (Fc fusion, VHH-human IgG1 Fc format is stated for the parental VHH antibodies; not restated for the humanized variants; also called A105.VH3; not shown: human IgG1 hinge-CH2-CH3 (Fc)) EVQLVESGGGLVQPGGSLRLSCAASGRTFDRHTMTWFRQAPGKEREFVATASRIPGDTYYVDSVKGRFTISRDNAKNSVYLQMNSLRAEDTAVYYCAATSAYCSEVDCYEKGSWYDNWGQGTMVTVSS"
  recorded-number: 62.9
- binder: "PVRIG-A118-H1 (Fc fusion, VHH-human IgG1 Fc format is stated for the parental VHH antibodies; not restated for the humanized variants; also called A118.VH1; not shown: human IgG1 hinge-CH2-CH3 (Fc)) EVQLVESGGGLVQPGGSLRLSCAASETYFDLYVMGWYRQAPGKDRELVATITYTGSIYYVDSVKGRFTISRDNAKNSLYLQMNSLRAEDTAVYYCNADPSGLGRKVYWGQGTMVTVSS"
  recorded-number: 62.4
- binder: "PVRIG-A50-H1c (Fc fusion, VHH-human IgG1 Fc format is stated for the parental VHH antibodies; not restated for the humanized variants; also called A50.VH1c; not shown: human IgG1 hinge-CH2-CH3 (Fc)) EVQLVESGGGLVQPGGSLRLSCAASGFTFSYYDMSWVRQAPGKGLEWVSTINSDGGRTSYVDSVKGRFTISRDNSKNTLYLQMNSLRAEDTAVYYCVEGDPHNFGLENLALRDFGSWGQGTMVTVSS"
  recorded-number: 77.7
